- Test system: HS 578T breast
- procedure_details: NCI tumour cell line growth inhibition, 48 h
Non-standard residues stand in square brackets, D forms with d. Residues, ends and D or L forms follow the SMILES beside them. *: point of attachment. ONb = O=[N+]([O-])c1ccc(CO*)cc1; AllylGly = C=CC[CH](N)C(=O)O; Boc = CC(C)(C)OC(=O)*
# TGI per entry

Look up TGI for this compound: "N#CC1=C2Sc3ccccc3N2[C@H](c2ccccc2)[C@H]2COC(=O)[C@@H]12"
> 100 µM

Also "O=C(Nc1ccccc1F)c1c(O)nc2sccn2c1=O" , if possible.
> 10 µM

Also "CCOC(C[Se]CC(OCC)OCC)OCC" , if possible.
45.9 µM

Also "Cc1c(-c2c(C)c3ccccc3n2S(=O)(=O)c2ccccc2)n(S(=O)(=O)c2ccccc2)c2ccccc12" , if possible.
> 100 µM

Also CN1CCN(CN2C(=O)C3C4C=CC(C3C2=O)C2C3C(=O)N(CN5CCN(C)CC5)C(=O)C3C42)CC1 (stereo not drawn) , if possible.
> 100 µM

Next:
Look up TGI for this compound: "COC(=O)N[C@H]1CCc2c(Br)c(OC)c(OC)c(OC)c2-c2ccc(SC)c(=O)cc21"
> 52.1 µM

Also C=CCC(NC(=O)OC(C)(C)C)C(=O)NC(CCC(=O)OCc1ccc([N+](=O)[O-])cc1)C(N)=O (stereo not drawn) (Boc-[AllylGly]-Glu(ONb)-NH2; configuration not given here) , if possible.
45.5 µg/mL

Also C=C1CC2(OC1=O)C(=O)N(CCCCCCCN1C(=O)C3(CC(=C)C(=O)O3)c3ccccc31)c1ccccc12 (stereo not drawn) , if possible.
32.3 µM

====

- Test system: SK-MEL-5 melanoma
- procedure_details: NCI tumour cell line growth inhibition, 48 h
readout_name: TGI

Some solved cases for reference:
Look up TGI for this compound: "Cc1cc2c(cc1Cl)Sc1nnc(Nc3ccccc3)n1S2(=O)=O"
53.8 µM

Also COc1cccc(C2CC(C)(N3CCCC3)Oc3cc4c(cc32)OCO4)c1O (configuration not stated) , if possible.
> 62.4 µM

Also "CSc1nc(NC2CCCC2)c2cc[nH]c2n1" , if possible.
96.6 µM

Next:
Look up TGI for this compound: "COc1ccc(-c2nc3sc(C)cn3c2/C=C/C(=O)c2cc(OC)c(OC)c(OC)c2)cc1"
2.91 µM

Also O=C1C(Br)=CC2([N+](=O)[O-])CCNc3c(O)c4c5c(c3C2=C1Br)=NCCC=5C=N4 (configuration not stated) , if possible.
1.33 µM

Also "CCNC(=O)Nc1cccc(C)n1" , if possible.
> 100 µM

====

# TGI per entry
- Test system: MCF7 breast
- procedure_details: NCI tumour cell line growth inhibition, 48 h

Some solved cases for reference:
Look up TGI for this compound: "CN(C)C(=S)N/N=C\C=N/NC(=S)N(C)C"
> 100 µM

Also "COc1ccc(-c2nc3sc(C)cn3c2/C=C/C(=O)c2cc(OC)c(OC)c(OC)c2)cc1" , if possible.
> 100 µM

Also COc1ccc2c3c1OC1CC(O)C=CC31CCN(C)C2 (stereo unspecified) , if possible.
> 48.8 µM

Next:
Look up TGI for this compound: "Cc1ccc(S(=O)(=O)N/C(=C\C=C\c2ccccc2)C(=O)C(C)(C)C)cc1"
> 100 µM

Also "Cc1ncc(CN=Cc2ccc(Cl)cc2)c(N)n1" , if possible.
> 100 µM

Also "O=C(NCCN(CCNC(=O)c1cccc(=O)n1O)CCN(CCNC(=O)c1cccc(=O)n1O)CCNC(=O)c1cccc(=O)n1O)c1cccc(=O)n1O" , if possible.
> 100 µM

Also "COc1ccc(C2=C(OC(=O)N(C)C)c3cccn3-c3cc(C(F)(F)F)ccc3S2)cc1" , if possible.
> 10 µM

Also COc1cccc(C2CC(C)(N3CCCC3)Oc3cc4c(cc32)OCO4)c1O (stereo unspecified) , if possible.
> 91.2 µM

Also "CC(=O)O[C@H]1CC[C@@]2(C)C(=CC[C@@H]3[C@@H]2CC[C@]2(C)C(c4cccnc4)=CC[C@@H]32)C1" , if possible.
> 100 µM

Also "CS(=O)(=O)CCNCc1nc(-c2ccc3ncnc(Nc4ccc(F)c(Cl)c4)c3c2)cs1" , if possible.
> 25 µM

====

- Tested on: MDA-MB-435
- procedure_details: NCI tumour cell line growth inhibition, 48 h
Where a SMILES comes first, the peptide text is derived from it. [ ]: non-standard residue; d: D form. The star is where a group is joined. Phe(4-NO2) = N[CH](Cc1ccc([N+](=O)[O-])cc1)C(=O)O; Boc = CC(C)(C)OC(=O)*; OBn = c1ccc(CO*)cc1
# TGI per entry

Look up TGI for this compound: "O=C(Oc1ccc(Cl)cc1Cl)c1ccccc1Nc1ccnc(C(F)(F)F)c1"
8.1 µM

Also "COc1cc([C@H]2c3cc4c(cc3O[C@@]3(O)COC(=O)[C@@H]23)OCO4)cc(OC)c1OC" , if possible.
> 100 µM

Also "Cn1c(=O)c2c(nc(NCCCCl)n2CC(=O)O)n(C)c1=O" , if possible.
> 100 µM

Also "CN(C)c1ccc(N2C(=S)SC(=Nc3ccccc3)C2=Nc2ccccc2)cc1" , if possible.
> 100 µM

Also CC1=NOC2(C1)/C(=N/O)CCC/C2=N\O (stereo unspecified) , if possible.
> 100 µM

Also "COc1ccc2nc(N/N=C(\C)c3ccccn3)cc(C)c2c1" , if possible.
1.69 µM

Next:
Look up TGI for this compound: "CCOC(C[Se]CC(OCC)OCC)OCC"
> 100 µM

Also "O=C(CCCCCCSc1nc(-c2ccccc2)cc(-c2ccc(Cl)cc2)n1)NO" , if possible.
10.9 µM

Also COc1ccc2c(c1)OC(c1cccnc1)C(c1ccccc1)C2=O (stereo unspecified) , if possible.
> 100 µM

Also "Cc1cnoc1NC1=CC(=O)C(=O)c2ccccc21" , if possible.
2.64 µM

Also "C=CC[C@H]1[C@@H](O[Si](C)(C)C(C)(C)C)[C@H](n2ccc(=O)[nH]c2=O)O[C@@H]1CO[Si](C)(C)C(C)(C)C" , if possible.
4.36 µM

Also COC(=O)CCC(NC(=O)OC(C)(C)C)C(=O)NC(Cc1ccc([N+](=O)[O-])cc1)C(=O)NCC(=O)OCc1ccccc1 (stereo unspecified) (Boc-Glu(OMe)-[Phe(4-NO2)]-Gly-OBn; configuration not given here) , if possible.
> 100 µM

Also CCOC(=O)c1ccc(NC(=O)N2CC(C)OC(C)C2)cc1 (stereo unspecified) , if possible.
> 100 µM

Also "CCNC(=O)Nc1cccc(C)n1" , if possible.
> 100 µM

Also Cc1ccc([N+](=O)[O-])cc1S(=O)(=O)Nc1ccc(C2=NN(c3ccc([N+](=O)[O-])cc3[N+](=O)[O-])C(c3ccccc3)C2)cc1 (stereo unspecified) , if possible.
47.4 µM

Also N#CCC1COc2ccccc2O1 (stereo unspecified) , if possible.
> 10 µM

Also "CC(C)(CN)CN" , if possible.
> 100 µM

Also "N=C1C(c2nc(-c3ccc(Br)cc3)cs2)=C(O)CN1Cc1cccnc1" , if possible.
> 100 µM

Also "CSc1nc(NC2CCCC2)c2cc[nH]c2n1" , if possible.
> 100 µM

Also "Cc1ccc(C(=O)OC[C@H]2CC[C@@H](n3cc(N(C)C4CCCCC4)c(=O)[nH]c3=O)O2)cc1" , if possible.
> 100 µM

Also "Cc1ccc2[nH]cc(-c3nc(-c4c[nH]c5ncccc45)cs3)c2c1" , if possible.
> 100 µM

====

- System: SF-295 CNS
- procedure_details: NCI tumour cell line growth inhibition, 48 h
Non-standard residues stand in square brackets, D forms with d. Residues, ends and D or L forms follow the SMILES beside them. *: point of attachment. ONb = O=[N+]([O-])c1ccc(CO*)cc1; AllylGly = C=CC[CH](N)C(=O)O; Boc = CC(C)(C)OC(=O)*
readout_name: TGI

Give the reported TGI for "CC(=O)OC(Cc1cc(C=C(C(F)(F)F)C(F)(F)F)cc(C)n1)(C(F)(F)F)C(F)(F)F" (system: SF-295 CNS).
8.21 µM

Also "CS(=O)(=O)CCNCc1nc(-c2ccc3ncnc(Nc4ccc(F)c(Cl)c4)c3c2)cs1" , if possible.
> 25 µM

Also "C=C1C(=O)O[C@H]2[C@H]1CC/C(COC(=O)c1cc3cc(F)ccc3[nH]1)=C\CC[C@@]1(C)O[C@@H]21" , if possible.
21.6 µM

Also "COc1ccc2nc3cc(Cl)ccc3c(NCCCCCC(=O)NC(COc3cnc4c(ccc5cccnc54)c3)COc3cnc4c(ccc5cccnc54)c3)c2c1" , if possible.
55.5 µM

Also N#CCC1COc2ccccc2O1 (centres undefined) , if possible.
> 10 µM

Also "C=CCn1c2c(c3ccccc3c1=O)C(=O)c1ccccc1-2" , if possible.
> 100 µM

Also "N#CC1=C2Sc3ccccc3N2[C@H](c2ccccc2)[C@H]2COC(=O)[C@@H]12" , if possible.
> 100 µM

Also C=CCC(NC(=O)OC(C)(C)C)C(=O)NC(CCC(=O)OCc1ccc([N+](=O)[O-])cc1)C(N)=O (centres undefined) (Boc-[AllylGly]-Glu(ONb)-NH2; configuration not given here) , if possible.
37.9 mg/L

Also "Cc1cnc2c(C)ccc([N+](=O)[O-])c2c1NCCCN(C)C" , if possible.
> 100 µM
